meta.source: the RNAGym collection of RNA variant scans (doi:10.7554/elife.80360)

B1: HDV Ribozyme (parent)
chain: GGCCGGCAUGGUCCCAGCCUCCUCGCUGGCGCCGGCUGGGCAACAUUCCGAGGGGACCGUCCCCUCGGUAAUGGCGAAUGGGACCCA

- Variants of: B1
- Assay text: self-cleavage, relative activity (ratio to wild type); higher = more cleavage; co-transcriptional
// values below are reported self-cleavage
The response must contain the number and no unit.

Below, each entry is followed by its recorded self-cleavage result.
C49U G54U ... 0.87
C7U C26A ... 0.91
G34U A70C ... 0.17

# input Name the recorded self-cleavage of the item U46A G73U in your answer.
# output 0.0811

# input Please look at this variant and report its self-cleavage: G5A G40U
# output 0.119

# input Assign self-cleavage to the following record: G25C A56C
# output 0.115

# input Report self-cleavage for C14U G28A
# output 0.0811

# input Return the recorded self-cleavage value; entry: U9G C15A
# output 1.21

# input For A8G C24A , write its self-cleavage.
# output 0.762

# input Note self-cleavage for the variant shown: G5C C57A
# output 0.111

# input Respond only with self-cleavage recorded for C24A G31U
# output 0.0519

# input Report self-cleavage, nothing else, for this variant: G5C G39U
# output 0.0346

# input Dear colleague, please send me the reported self-cleavage for A8G G55U when you can.
# output 0.804

# input Annotate the variant C14A U37A with its measured self-cleavage.
# output 0.0405

# input Provide measured self-cleavage value, entry: C44A C86G
# output 0.787
